Give measured melting point for each item. Keep answers brief.

// query Give recorded melting point. O=C(O)[C@@H]1C[C@H]1/C=C\c1ccc(-c2nc3ccccc3o2)cc1 (relative stereo)
// result 171 to 172 °C

// query Query melting point for C=CCc1ccccc1OCC(O)CNCCc1ccc(NC2CCN(S(=O)(=O)c3ccc(NC(=O)NCCCCCC)cc3)CC2)cc1 (stereo not given)
// result 68 to 70 °C

// query Tell me melting point reported for CCOC(=O)c1cc(-c2csc(N(C)S(=O)(=O)c3ccccc3)n2)c(=O)[nH]c1C
// result 231 to 234 °C

// query Output melting point of O=C1c2cccc3cccc(c23)C(=O)N1C1OC(CO)C(O)C(O)C1O (stereo not given)
// result 285 to 286 °C

// query Please look at this compound and report its melting point: Nc1nsnc1NCCCOc1cccc(CN2CC=CCC2)c1
// result 99.5 to 104 °C

----------
Would you kindly list melting point for each of these compounds?

// query Please list melting point recorded for the compound C=CCOC(=O)c1ccc(OC(=O)c2ccc(OC)c(C34CC5CC(CC(C5)C3)C4)c2)c(C)c1
// result 138 to 139 °C

// query Give the reported melting point for this compound. COC(=O)c1ccc(OC(C)c2ccccc2OCc2ccccc2)cc1 (configuration not stated)
// result 90.8 to 91.5 °C

// query Annotate the compound N#Cc1cc(NC(=O)c2ccn(-c3ccc(Cl)cc3)c2)ccc1N1CCN(C2CCOCC2)CC1 with its measured melting point.
// result 224 °C

// query Please indicate melting point recorded for CN(Cc1ccccc1)[C@H](Cc1c[nH]c2ccccc12)c1nc(-c2ccccc2)c[nH]1
// result 110 to 112 °C

// query Please indicate melting point recorded for CCCCCCC(O)CCCCCCCCCCC(=O)NCCNCCO (configuration not stated)
// result 102 °C

// query # return recorded melting point for entry C[C@H]([C@](O)(Cn1cncn1)c1ccc(F)cc1F)S(N)(=O)=O
// result 195 to 197 °C

// query Report melting point, nothing else, for this compound: N#Cc1ccc(N2CCC(CO)CC2)cc1
// result 148 to 150 °C

// query Respond only with melting point recorded for CC(C)C(C)(C)C(O)(COc1ccc(Cl)cc1)Cn1cncn1 (configuration not stated)
// result 59 to 60 °C

// query Output melting point of CC(O)c1cc2cc(O)c(Cl)c(Cl)c2s1 (configuration not stated)
// result 173 to 174 °C

// query Check the records and state melting point for COc1ccc(Cl)cc1S(=O)(=O)Nc1onc(C)c1Br
// result 180 to 184 °C

// query Give the measured melting point for CCOC(=O)CC(NC(=O)c1cc(NC(=O)OC(C)(C)C)cc(OCc2ccccc2)c1)c1ccccc1 (racemic)
// result 115 °C

// query Tell us which melting point value is on record for OCCN(Cc1ccc2ccccc2c1)C1(c2nccc3sccc23)CCNCC1
// result 53 to 55 °C

// query Please look at this compound and report its melting point: CCNC(=S)NNC(=O)C(F)(F)F
// result 170 °C

// query Please report the measured melting point for Fc1cc(Cc2ccnc3c2Cc2ccccc2O3)ccn1
// result 185 to 189 °C

// query Specify measured melting point for Nc1nnc(-c2cccc(Oc3cccc(COc4ccc(Cl)c(Cl)c4)c3)c2)s1 .
// result 128 to 130 °C

// query Identify measured melting point corresponding to CC(C)=CCOc1c(-c2ccc(S(C)(=O)=O)cc2)cnn(-c2cccc(Cl)c2)c1=O
// result 113 to 115 °C

// query Input CCCOc1ccc(-c2ccc(=S)[nH]n2)cc1OC , output reported melting point.
// result 170 °C

// query Please report the measured melting point for COc1cc(C)nc(C(=O)O)n1
// result 140 to 141 °C

// query Answer with the recorded melting point for the compound listed here: COc1ccc(CC2NC(=O)NC2=O)cc1CCc1ccccc1 (configuration not stated)
// result 147 to 149 °C

// query Recall and state the measured melting point for CC(C)(C)OC(=O)NCC(=O)Nn1cccc1C(=O)c1ccccc1Cl .
// result 156 to 158 °C

// query Tell me measured melting point for CCOC(C)=C1SC(=S)N(c2ccc(Cl)cc2)C1=O please.
// result 168 to 171 °C

// query Note melting point for the compound shown: CN1CCN(c2nc3cccccc-3n2)CC1
// result 93 to 95 °C

// query Name the recorded melting point of the compound listed here: CC1CCCCN1c1cc(F)cc(C(=O)Nc2ccc(OCCN3CCOCC3)c3ccccc23)c1 (configuration not stated)
// result 75 to 78 °C

// query Please report the measured melting point for C=C(C)C(=O)NCC(=O)O
// result 104 °C

// query Specify measured melting point for CN1CNC(=S)N(c2ccc(C(F)(F)F)cc2)C1 .
// result 163 to 165 °C

// query Answer with the recorded melting point for the compound listed here: O=C(c1ccccc1)n1cc(F)c(=O)n(C(=O)c2ccccc2)c1=O
// result 195 °C

// query Tell us which melting point value is on record for CNC(=O)c1ccc(Nc2cc(-n3ccc(C(F)(F)F)n3)c3ccccc3n2)cc1
// result 250 to 252 °C

// query For CCSc1cnn(-c2cc(-c3ccnc(Nc4cccc(Cl)c4)n3)ccn2)c(=O)c1Cl , write its melting point.
// result 80 to 100 °C

// query Determine its reported melting point: CCS(=O)(=O)c1cc(OC)c(OC)c(C(=O)Cl)c1
// result 67 to 68 °C

// query Determine from records and report melting point for COC(=O)c1ccccc1-c1noc(-c2ccc(OC)cc2)n1
// result 73 to 75 °C

// query Identify measured melting point associated with CCCc1ccc(-c2ccn([C@H](CC(=O)O)C(=O)N[C@H](C(=O)NC)C(C)(C)C)c2)cc1
// result 104 to 106 °C

// query Report melting point for C/C(=C\c1ccc(C(=O)OCc2ccc([N+](=O)[O-])cc2)cc1)c1ccc2c(c1)C(C)(C)CCC2(C)C
// result 183 to 184 °C

// query Report measured melting point; entry is CC(N)(C(N)=O)C(F)F (configuration not stated)
// result 77 to 80 °C

// query Please give measured melting point of the following entry: CC(C)(c1ccccc1)c1ccc(OCC(=O)O)c(C(C)(C)c2ccccc2)c1
// result 114 °C

// query Return the recorded melting point value; entry: CNC(=S)C1(c2cccnc2)CCCS1=O (configuration not stated)
// result 204 °C

// query Fill in melting point for record CC1(C)C2CCC1(CNC(=O)CBr)CC2
// result 89 °C

// query Provide measured melting point value, entry: CCOC(=O)C(=O)Nc1cccc(N(C)C)c1C#N
// result 124 to 126 °C

// query Give the value of melting point reported for the following: CC1C(=C[N+](=O)[O-])Nc2ccc(Cl)cc2C(c2ccccc2F)=[N+]1[O-] (configuration not stated)
// result 198 to 200 °C

// query Kindly indicate its recorded melting point. Item: CC1C(=O)Nc2c(C(=O)c3ccccc3)cccc21 (configuration not stated)
// result 125 to 127 °C

// query // fetch melting point given entry O=C(OCc1ccccc1)N1C=CC(c2cccc(Cl)c2Cl)C=C1
// result 69 to 70 °C

// query Report measured melting point; entry is CCOC(=O)C1(C(=O)OCC)CCC2(c3cc(OC)c(OC)cc3CCN2C(C)=O)C(C2c3cc(OC)c(OC)cc3CCN2CC)C1 (configuration not stated)
// result 142 to 144 °C

// query Fill in melting point for record COC1=CC2=CCC3C(=CCC4(C)C(=O)C(C)CC34)C2(C)CC1 (configuration not stated)
// result 124 to 129 °C
